assay_name: Viability qHTS for spleen associated tyrosine kinase inhibitor (SYKi) drug resistant MV4-11 cells (AID 1963824); also: nearly all actives have a fitted effect of over 35% in size
assay_context: SYKi-resistant MV4-11 viability, CellTiter-Glo, 72 h; series mostly up to 45 µM
Inconclusive results are not listed. Active and inactive are the calls of the source. Calls follow the shape of the dose curve; as a rule, active = well fitted cell-killing curve with a large enough effect; inconclusive = small, poorly fitted or top-dose-only effect, or effect the other way; inactive = no such curve, though single readings can be large or run the other way.
Possible outcomes: Yes = active, No = inactive

NCCc1ccn[nH]1 : No
O=C(NNc1nc2cc(F)ccc2n2cccc12)c1cnccn1 : Yes
N#CC(c1ccc(Cl)cc1)c1c(Cl)cc(-n2ncc(=O)[nH]c2=O)cc1Cl (stereo unspecified) : Yes
Nc1cccc2c(N)cccc12 : Yes
CNCCN(C)Cc1cn[nH]c1-c1ccc(OC2CC(OCCC3CCOCC3)C2)cc1 (stereo unspecified) : Yes
Cc1cc(N=Nc2ccc(S(=O)(=O)Nc3ccccn3)cc2)c(N)cc1O : Yes

---

assay_name: Quantitative highthroughput screen to assess conditional lethalithy of NOMO1 cells grown in RPMI1640 with untreated serum (RPMI+s) (AID 1963876); also: nearly all actives have a fitted effect of over 35% in size
assay_context: NOMO1 AML cells in RPMI+serum, CellTiter-Glo viability, 48 h; series mostly up to 45.8 µM
Records with an inconclusive call do not appear. The source made the active and inactive calls. Calls follow the shape of the dose curve; as a rule, active = well fitted cell-killing curve with a large enough effect; inconclusive = small, poorly fitted or top-dose-only effect; inactive = flat fitted curve, though single readings scatter.
Possible outcomes: active, inactive

CC1=C(CO)C(=O)O[C@@H]([C@@H](C)[C@H]2CC[C@H]3[C@@H]4C[C@H]5O[C@]56[C@@H](O)C=CC(=O)[C@]6(C)[C@@H]4CC[C@]23C)C1 : active
C[C@@H]1[C@H](C)CC[C@]2(C(=O)O)CC[C@]3(C)C(=CC[C@@H]4[C@@]5(C)CC[C@H](O)C(C)(C)[C@H]5CC[C@]43C)[C@@H]12 : inactive
COc1ccc2cc1Oc1ccc(cc1)C[C@H]1c3cc(c(OC)cc3CCN1C)Oc1c(OC)c(OC)cc3c1[C@H](C2)N(C)CC3 : inactive
CCCCOc1c(C(=O)c2c(F)cc(C)cc2F)cnc2n[nH]cc12 : inactive
CC(C)[C@H](N)C(=O)OCCOCn1cnc2c(=O)[nH]c(N)nc21 : inactive
CN1CCC[C@H]1CCO[C@](C)(c1ccccc1)c1ccc(Cl)cc1 : inactive
CC=CC[C@@H](C)C(=O)[C@H]1C(=O)N[C@@H](C(C)C)C(=O)N(C)CC(=O)N(C)[C@@H](CC(C)C)C(=O)N[C@@H](C(C)C)C(=O)N(C)[C@@H](CC(C)C)C(=O)N[C@@H](C)C(=O)N[C@H](C)C(=O)N(C)[C@@H](CC(C)C)C(=O)N(C)[C@@H](CC(C)C)C(=O)N(C)[C@@H](C(C)C)C(=O)N1C : inactive
O=C1N(c2ccccc2)c2ccccc2C1(Cc1ccncc1)Cc1ccncc1 : inactive
CC(C)NCC(O)c1ccc(O)c(O)c1 (configuration not stated) : active
COc1ccc(F)c(F)c1C(=O)c1cnc(NC2CCN(S(C)(=O)=O)CC2)nc1N : active
N[C@H](CSC(c1ccccc1)(c1ccccc1)c1ccccc1)C(=O)O : inactive
CN(C)CC(C)(C)CNc1nn2c(-c3ccccc3)nnc2cc1C1CCC1 : active
CCCCOc1ccc(C(=O)Nc2ccc(F)cc2F)cc1 : inactive
CN1CCN(Cc2ccc(NC(=O)Nc3ccc(Oc4cc(NC(=O)C5CC5)ncn4)cc3)cc2C(F)(F)F)CC1 : active
OC(Cn1cncn1)(Cn1cncn1)c1ccc(F)cc1F : inactive
Nc1ncnc2c1ncn2[C@@H]1O[C@H](CO)[C@@H](O)[C@@H]1O : active
NC1(C(=O)N[C@@H](CCO)c2ccc(Cl)cc2)CCN(c2ncnc3[nH]ccc23)CC1 : active

Entry source: PubChem BioAssay (NCATS)
